This section presents compounds with their documented solubility at 30 s values.
Assay: Solubility of glycerol-containing formulations (post vortexing, 30 min and overnight at 18° C.)
Format: physicochemical
Conditions: glycerol-containing formulation, aqueous with cosolvent or surfactant or cyclodextrin, compound 2 mg/mL; 30% glycerol; post vortexing; read-out: Solubility of glycerol-containing formulations post vortexing, 30%
Reported Property: solubility at 30 s

1) CCN1/C(=C/C=C/c2sc3ccccc3[n+]2CC)Sc2ccccc21 [JAC-B1, 3′,3′-Diethylthiacarbocyanine iodide] | < 2000 µg/mL
2) CCN1/C(=C/C(C)=C/c2sc3ccccc3[n+]2CC)Sc2ccccc21 | < 2000 µg/mL
3) CCN1/C(=C/C=C/c2oc3ccccc3[n+]2CC)Oc2ccccc21 [JAC-R1, 3′,3′-Diethyloxacarbocyanine iodide] | < 2000 µg/mL
